- Read-out: Interferon-gamma inducible Protein 10 (IP10), CXCL10 (gene 3627)
- test: BSK_hDFCGF_IP10: BioMAP Diversity Plus: hDFCGF Assay for Interferon-gamma inducible Protein 10 (IP10) Biomarker Activity (AID 2283053)
- condition_summary: primary human foreskin fibroblasts; actives raise or lower the signal
Activity calls are given as the source filed them. How the source made its calls: active means hit-call score of the fitted dose curve at least 0.9, where 1 is the maximum; inactive means score below 0.9.
Outcome codes: active, inactive

1. CCCCCCCCCCCCCCCC[N+](C)(C)Cc1ccccc1
active
2. C=C(C)C(=O)OCC(F)(F)C(F)(F)C(F)(F)C(F)(F)C(F)(F)C(F)(F)C(F)(F)F
inactive
3. C#C[C@]1(O)CC[C@H]2[C@@H]3CCc4cc(OC)ccc4[C@H]3CC[C@@]21C
inactive
4. FC(F)(F)C(F)(F)C(F)(F)C(F)(F)C(F)(F)C(F)(F)CC1CO1 (stereo not given)
inactive
5. O=C(O)C(F)(OC(F)(F)C(F)(OC(F)(F)C(F)(F)C(F)(F)F)C(F)(F)F)C(F)(F)F (stereo not given)
inactive
